Cited source for all entries: ChEMBL document CHEMBL6114985

Kindly state selectivity ratio for each of the entries shown.
# methodDescription: Selectivity index, ratio of CC50 for human RD cells to EC50 for antiviral activity against enterovirus A71 TW/2231/98 infected in human RD cells
# Type: toxicity, cell-based
# conditionLabel: read-out: Ratio CC50/EC50

Answered cases to consult:
* COc1ccc(F)c(C(=O)Nc2cncc(-c3cc(-c4cccnc4C)cs3)c2)c1 | 1.7
* COc1ccc(F)c(C(=O)Nc2cncc(-c3cc(-c4cccnc4)cs3)c2)c1Cl | > 19.2

## Task Recorded selectivity ratio for COc1ccc(F)c(C(=O)Nc2cncc(-c3cc(-c4cccnc4)cs3)c2)c1F , please?
## Result 7.7
